molecular target: recombinant α6β3γ2 GABAARs expressed in HEK293 cells (Rattus norvegicus, UniProt P18508+P30191+P63079); assay: GABA-independent displacement of [^3H]EBOB binding, recombinant α6β3γ2; conditions: α6β3γ2, HEK293, 1 nM [^3H]EBOB, no GABA
Sequence (P30191 20-453): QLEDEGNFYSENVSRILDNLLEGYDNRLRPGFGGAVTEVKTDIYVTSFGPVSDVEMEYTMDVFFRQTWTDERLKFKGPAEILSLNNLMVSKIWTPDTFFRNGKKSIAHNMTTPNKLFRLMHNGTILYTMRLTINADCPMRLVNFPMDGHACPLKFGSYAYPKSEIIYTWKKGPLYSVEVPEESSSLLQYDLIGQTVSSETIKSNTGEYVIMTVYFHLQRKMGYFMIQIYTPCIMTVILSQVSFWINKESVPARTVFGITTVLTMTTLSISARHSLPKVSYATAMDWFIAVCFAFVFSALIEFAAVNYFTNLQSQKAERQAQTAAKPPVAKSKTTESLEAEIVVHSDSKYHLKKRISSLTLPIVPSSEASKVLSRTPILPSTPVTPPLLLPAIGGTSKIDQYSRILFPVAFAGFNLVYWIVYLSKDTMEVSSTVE
Sequence (P63079 26-473): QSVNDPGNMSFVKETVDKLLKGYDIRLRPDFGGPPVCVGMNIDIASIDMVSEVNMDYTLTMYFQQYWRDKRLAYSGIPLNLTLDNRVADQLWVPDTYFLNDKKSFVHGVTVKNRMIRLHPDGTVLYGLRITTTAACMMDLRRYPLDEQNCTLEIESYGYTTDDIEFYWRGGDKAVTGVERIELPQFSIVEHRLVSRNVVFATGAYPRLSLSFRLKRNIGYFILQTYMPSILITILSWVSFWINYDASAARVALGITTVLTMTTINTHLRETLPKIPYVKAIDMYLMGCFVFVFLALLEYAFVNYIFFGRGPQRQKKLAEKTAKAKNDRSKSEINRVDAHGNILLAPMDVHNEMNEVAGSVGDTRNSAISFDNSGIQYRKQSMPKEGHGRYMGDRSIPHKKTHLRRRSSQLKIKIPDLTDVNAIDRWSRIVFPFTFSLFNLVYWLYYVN
Sequence (P18508 39-466): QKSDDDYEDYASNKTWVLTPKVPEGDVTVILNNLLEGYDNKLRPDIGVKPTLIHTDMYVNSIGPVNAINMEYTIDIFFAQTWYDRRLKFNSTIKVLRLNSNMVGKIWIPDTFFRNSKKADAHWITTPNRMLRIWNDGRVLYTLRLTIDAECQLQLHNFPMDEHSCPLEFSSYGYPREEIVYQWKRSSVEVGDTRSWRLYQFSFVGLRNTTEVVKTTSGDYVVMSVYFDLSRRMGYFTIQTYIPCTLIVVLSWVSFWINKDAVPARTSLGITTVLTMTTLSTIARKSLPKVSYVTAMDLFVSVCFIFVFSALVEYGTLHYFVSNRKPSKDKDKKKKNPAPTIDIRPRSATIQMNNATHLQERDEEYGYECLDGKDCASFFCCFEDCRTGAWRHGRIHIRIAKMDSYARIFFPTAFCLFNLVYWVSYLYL
Property measured: IC50 (µM)

{"Smiles entry": "CCOC(=O)Nc1ccc(NCc2c(C)cc(C)cc2C)cc1N", "Readout unit": "µM", "Measured value": 11.1}

Each recorded value in this set is attributed to paper PMC8847198.
